System: human HSD17B13 (Homo sapiens)
Test: Substrate screening of steroid and bioactive lipid libraries against purified recombinant HSD17B13 (NADH-linked luciferase assay)
Format: biochemical
Assay conditions: Bioactive Lipid Library, 5 μM bioactive lipid (Estradiol Control 50 μM), 500 μM NAD+, 100 ng enzyme, 3 hours at 23° C.
Quantity kind: HSD17B13 Enzymatic Activity Relative Light Units

[[record]]
molecule = "CCCCC/C=C\\C=C\\[C@H](O)C/C=C\\C/C=C\\CCCC(=O)O [11(R)-HETE]"
reading = "1064120 RLU"

[[record]]
molecule = "CCCCC[C@H](O)/C=C/[C@H]1[C@H](O)C[C@]2(C)C/C(=C\\CCCC(=O)[O-])C[C@H]12.CCCCC[C@H](O)/C=C/[C@H]1[C@H](O)C[C@]2(C)C/C(=C\\CCCC(=O)[O-])C[C@H]12.[Ca+2] [Ciprostene (calcium salt)]"
reading = "360560 RLU"

[[record]]
molecule = "O=C(O)CCC[C@H](O)\\C=C/C=C/C=C/[C@H](O)C/C=C\\CCCCCO [20-hydroxy Leukotriene B4]"
reading = "654120 RLU"

[[record]]
molecule = "CCCCC/C=C\\C=C\\[C@@H](O)C/C=C\\C/C=C\\CCCC(=O)O [11(S)-HETE]"
reading = "696400 RLU"

[[record]]
molecule = "CC/C=C\\C[C@H](O)/C=C/[C@H]1OC(O)C[C@H](O)[C@@H]1C/C=C\\CCCC(=O)O (stereo partly shown) [Thromboxane B3]"
reading = "348080 RLU"

[[record]]
molecule = "CCCCCCCC\\C=C/C=C/C=C/[C@@H]1O[C@H]1CCCC(=O)OC [Leukotriene A3 methyl ester]"
reading = "990560 RLU"

[[record]]
molecule = "CCCCCCCCCCCCCCCC(=O)OC[C@H](COP(=O)([O-])OCC[N+](C)(C)C)OC(=O)CCCC(=O)O [PGPC]"
reading = "371440 RLU"


====

Property: HSD17B13 Enzymatic Activity Relative Light Units; scope: individual compounds
System: human HSD17B13 (Homo sapiens)
Sequence (Q7Z5P4 20-300): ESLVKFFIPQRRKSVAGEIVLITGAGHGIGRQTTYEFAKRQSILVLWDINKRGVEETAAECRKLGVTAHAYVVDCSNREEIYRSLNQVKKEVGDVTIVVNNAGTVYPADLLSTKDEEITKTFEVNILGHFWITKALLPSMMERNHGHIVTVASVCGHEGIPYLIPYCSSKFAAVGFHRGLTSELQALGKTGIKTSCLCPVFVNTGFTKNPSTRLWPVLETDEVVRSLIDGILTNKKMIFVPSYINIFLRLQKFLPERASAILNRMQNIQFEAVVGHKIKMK
Test: Substrate screening of steroid and bioactive lipid libraries against purified recombinant HSD17B13 (NADH-linked luciferase assay)
Assay type: biochemical
Assay conditions: Bioactive Lipid Library, 5 μM bioactive lipid (Estradiol Control 50 μM), 500 μM NAD+, 100 ng enzyme, 3 hours at 23° C.
Protocol: To understand the functional consequences of premature truncation of the HSD17B13 protein due to rs72613567:TA (the associated variant, rs72613567, is an insertion of an adenine adjacent to the donor splice site of exon six (TA allele)), the enzymatic activity of isoforms A and D was evaluated in vitro using recombinant protein and nicotinamide […] dinucleotide as cofactor. […]
Quantity kind: HSD17B13 Enzymatic Activity Relative Light Units (RLU)

[[record]]
compound = "CCCCC[C@H](O)/C=C/C=C\\C/C=C\\CCCCC(=O)O [13(S)-HOTrE(γ)]"
system = "human HSD17B13 (Homo sapiens)"
reading = 458840

[[record]]
compound = "CCCCC/C=C\\C/C=C\\C/C=C\\C=C\\[C@@H](O)CCCC(=O)O [5(S)-HETE]"
system = "human HSD17B13 (Homo sapiens)"
reading = 430800

[[record]]
compound = "CCC(O)C(O)C/C=C\\C/C=C\\C/C=C\\C/C=C\\C/C=C\\CCC(=O)O (racemic) [(±)19(20)-DiHDPA]"
system = "human HSD17B13 (Homo sapiens)"
reading = 827600

[[record]]
compound = "CC/C=C\\C[C@H](O)/C=C/[C@H]1OC(=O)C[C@H](O)[C@@H]1C/C=C\\CCCC(=O)O [11-dehydro Thromboxane B3]"
system = "human HSD17B13 (Homo sapiens)"
reading = 322480

[[record]]
compound = "O=C(O)CCCCC(=O)CC[C@@H]1[C@@H](CCC(=O)O)[C@@H](O)C[C@H]1O"
system = "human HSD17B13 (Homo sapiens)"
reading = 367640

[[record]]
compound = "CCCCC/C=C\\C[C@@H](O)/C=C/c1cccc(C[C@@H](O)CCCCO)n1"
system = "human HSD17B13 (Homo sapiens)"
reading = 425520

[[record]]
compound = "CCCCCC=CCC=CCC=CCC(O)C(O)CCCC(=O)O (racemic) [(±)5(6)-DiHET]"
system = "human HSD17B13 (Homo sapiens)"
reading = 353120

[[record]]
compound = "CCCCCC(=O)/C=C/[C@H]1C(O)CC(=O)[C@H]1C/C=C\\CCCC(=O)O (some centres unmarked) [8-iso-15-keto Prostaglandin E2]"
system = "human HSD17B13 (Homo sapiens)"
reading = 262160


====

System: human HSD17B13 (Homo sapiens, UniProt Q7Z5P4)
Sequence (Q7Z5P4 20-300): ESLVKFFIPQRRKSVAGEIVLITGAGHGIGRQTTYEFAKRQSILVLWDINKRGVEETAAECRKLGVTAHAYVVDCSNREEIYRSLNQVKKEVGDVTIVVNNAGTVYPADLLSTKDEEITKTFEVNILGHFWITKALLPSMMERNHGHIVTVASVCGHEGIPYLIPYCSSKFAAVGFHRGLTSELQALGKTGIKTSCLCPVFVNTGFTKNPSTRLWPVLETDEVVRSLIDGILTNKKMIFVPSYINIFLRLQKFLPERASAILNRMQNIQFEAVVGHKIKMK
Test: Substrate screening of steroid and bioactive lipid libraries against purified recombinant HSD17B13 (NADH-linked luciferase assay)
Format: biochemical
Assay conditions: Steroid Library, 50 μM steroid, 500 μM NAD+, 100 ng enzyme, 3 hours at 23° C.
Property: HSD17B13 Enzymatic Activity Relative Light Units; scope: individual compounds
Quantity kind: HSD17B13 Enzymatic Activity Relative Light Units

[[record]]
compound = "C[C@]12CCC(=O)C=C1CC[C@@H]1[C@@H]2C(=O)C[C@@]2(C)[C@H]1CC[C@]2(O)C(=O)CO"
reading = "204080 RLU"

[[record]]
compound = "CC(=O)OC1=CC[C@H]2[C@@H]3CC[C@H]4CC=CC[C@]4(C)[C@H]3CC[C@]12C [5alpha-Androsta-2,16-dien-17-yl acetate]"
reading = "197640 RLU"

[[record]]
compound = "C[C@]12CC[C@@H](O)C[C@@H]1CC[C@@H]1[C@@H]2C(=O)C[C@]2(C)C(=O)CC[C@@H]12"
reading = "196640 RLU"

[[record]]
compound = "C[C@]12CC[C@@H](O)C[C@H]1CC[C@@H]1[C@@H]2C(=O)C[C@]2(C)C(=O)CC[C@@H]12"
reading = "195960 RLU"

[[record]]
compound = "CC(=O)OCC(=O)[C@@]1(O)CC[C@H]2[C@@H]3CCC4=CC(=O)CC[C@]4(C)[C@H]3C(=O)C[C@@]21C [Cortisone 21-acetate]"
reading = "200240 RLU"


====

System: human HSD17B13 (Homo sapiens)
Test: Substrate screening of steroid and bioactive lipid libraries against purified recombinant HSD17B13 (NADH-linked luciferase assay)
Type: biochemical
Assay conditions: Bioactive Lipid Library, 5 μM bioactive lipid (Estradiol Control 50 μM), 500 μM NAD+, 100 ng enzyme, 3 hours at 23° C.
Where HSD17B13 Enzymatic Activity Relative Light Units equals or exceeds 400000 RLU, the correct label is 1; where it does not, the label is -1.

[[record]]
compound = "CC/C=C\\C[C@H](O)/C=C/[C@@H]1[C@H](C/C=C\\CCCC(=O)O)[C@@H](O)C[C@H]1O"
answer_label = -1

[[record]]
compound = "CCCCC/C=C\\C[C@@H](O)/C=C/C=C\\CCC(=O)O [tetranor-12(R)-HETE]"
answer_label = 1

[[record]]
compound = "CCCCCC(O)/C=C/C=C\\CCCCCCCCCC(=O)O (racemic) [(±)15-HEDE]"
answer_label = 1

[[record]]
compound = "CCC(O)/C=C/C=C\\C/C=C\\C/C=C\\C/C=C\\C/C=C\\CCC(=O)O (racemic) [(±)20-HDHA]"
answer_label = 1

[[record]]
compound = "CC/C=C\\C[C@H](O)/C=C/[C@@H]1[C@@H](C/C=C\\CCCC(=O)O)[C@@H](O)C[C@H]1O"
answer_label = -1

[[record]]
compound = "C[C@@H](O)CCC[C@@H](O)/C=C/[C@H]1[C@H](O)CC(=O)[C@@H]1C/C=C\\CCCC(=O)O [15(R),19(R)-hydroxy Prostaglandin E2]"
answer_label = -1

[[record]]
compound = "O=C(O)CCC/C=C\\C[C@@H]1[C@@H](/C=C/[C@@H](O)CCCCCO)[C@H](O)C[C@@H]1O [20-hydroxy Prostaglandin F2α]"
answer_label = -1

[[record]]
compound = "CCCCC/C=C\\C=C\\C(O)C/C=C\\C/C=C\\CCCC(=O)O (racemic) [(±)11-HETE]"
answer_label = 1

[[record]]
compound = "CCCCC/C=C\\C/C=C\\C/C=C\\C=C\\[C@@H](O)CCCC(=O)O (racemic) [(±)5-HETE]"
answer_label = 1

[[record]]
compound = "CC/C=C\\C/C=C\\C/C=C\\C/C=C\\C=C\\C(O)C/C=C\\CCC(=O)O (racemic) [(±)7-HDHA]"
answer_label = -1

[[record]]
compound = "CCCCC/C=C\\C/C=C\\C/C=C\\C=C\\C(=O)CCCC(=O)O"
answer_label = -1

[[record]]
compound = "CCCCC/C=C\\C=C\\C(O)CCCCCCCC(=O)O (racemic) [(±)9-HODE]"
answer_label = 1

[[record]]
compound = "O=C(CCC/C=C\\C/C=C\\C/C=C\\C/C=C\\CCCCCO)NCCO [20-HETE Ethanolamide]"
answer_label = 1

[[record]]
compound = "CCCCC[C@@H](/C=C/C=C\\C/C=C\\CCCCC(=O)O)OO [13(S)-HpOTrE(γ)]"
answer_label = -1

[[record]]
compound = "CCCCC[C@H](O)/C=C/C=C\\C/C=C\\C/C=C\\CCCC(=O)O (racemic) [(±)15-HETE]"
answer_label = -1

[[record]]
compound = "O=C(O)CCC/C=C\\C/C=C\\C/C=C\\C/C=C\\CCCCCC(=O)O"
answer_label = -1

[[record]]
compound = "CCCCC/C=C\\C=C\\[C@H](CCCCCCCC(=O)O)OO [9(S)-HpODE]"
answer_label = -1

[[record]]
compound = "CC/C=C\\CC(O)/C=C/C=C\\C/C=C\\C/C=C\\CCCC(=O)O (racemic) [(±)15-HEPE]"
answer_label = 1

[[record]]
compound = "O=P([O-])(O)O[C@@H]1C(O)[C@H](OP(=O)([O-])O)[C@H](O)C(O)[C@H]1O.[Na+].[Na+] (stereo partly shown)"
answer_label = 1

[[record]]
compound = "CCCCCC(=O)CC[C@@H]1[C@@H](C/C=C\\CCCC(=O)O)[C@@H](O)C[C@@H]1O"
answer_label = -1

[[record]]
compound = "CC(C)OC(=O)CCC/C=C\\C[C@@H]1[C@@H](/C=C/[C@@H](O)COc2cccc(C(F)(F)F)c2)[C@H](O)C[C@@H]1O"
answer_label = 1

[[record]]
compound = "C[C@@H](O)CCC[C@H](O)/C=C/[C@@H]1[C@@H](CCCCCCC(=O)O)[C@@H](O)C[C@H]1O [19(R)-hydroxy Prostaglandin F1α]"
answer_label = -1

[[record]]
compound = "CCCCCC1OC1C/C=C\\C/C=C\\C/C=C\\CCCC(=O)O (racemic) [(±)14(15)-EET]"
answer_label = -1

[[record]]
compound = "CCCCC/C=C\\C/C=C\\CC(O)C(O)C/C=C\\CCCC(=O)O (racemic) [(±)8(9)-DiHET]"
answer_label = 1

